Biological target: UniProtKB P23458
Sequence (P23458 875-1153): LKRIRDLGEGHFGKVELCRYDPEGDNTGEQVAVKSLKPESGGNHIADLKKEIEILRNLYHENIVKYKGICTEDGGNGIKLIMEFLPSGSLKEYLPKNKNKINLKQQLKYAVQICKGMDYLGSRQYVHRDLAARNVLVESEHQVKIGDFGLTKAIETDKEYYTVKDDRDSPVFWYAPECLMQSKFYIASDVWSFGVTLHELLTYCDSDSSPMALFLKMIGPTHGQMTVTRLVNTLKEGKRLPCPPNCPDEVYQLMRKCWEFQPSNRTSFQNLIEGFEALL
Test: Jak Biochemical HTRF Assay, JAK1
Conditions: HTRF biochemical assay, GST-tagged catalytic domain; top concentration tested […]; read-out: JAK1 IC50
outcome.measure: IC50 (nM)

a = COC1CN(C2CCC(CC#N)(n3cc(C(N)=O)c(Nc4ccnc(F)c4)n3)CC2)C1 (stereo not shown) [Example 40-94]
b = C[C@@H](OC(=O)N1CCC(CC#N)(n2cc(C(N)=O)c(Nc3ccc(F)cc3)n2)CC1)C(F)(F)F [Example 30-14]
Between a and b , which one has the lower reported IC50 value? Indicate your choice by writing its label.
b

P = N#CCC1(n2cc(C(N)=O)c(Nc3ccc(F)cc3)n2)CCN(Cc2ccc(F)cn2)CC1 [Example 22-48]
Q = N#CCC1(n2cc(C(N)=O)c(Nc3ccc(F)cc3)n2)CCN(Cc2cc3ccccc3[nH]2)CC1 [Example 22-43]
Please indicate which entry, P or Q , has the lower recorded IC50 value. Response format: the label of the selected entry.
Q

A = Cc1cc(N2CCC(CC#N)(n3cc(C(N)=O)c(Nc4ccc(F)cc4)n3)CC2)cnc1C [Example 3-14]
B = CNC(=O)c1cn(C2(CC#N)CCN(C(=O)OC(C)(C)C)CC2)nc1Nc1ccccc1 [Example 1]
C = COc1ncc(N2CCC(CC#N)(n3cc(C(N)=O)c(Nc4ccc(F)cc4)n3)CC2)cn1 [Example 3-25]
Sort the 3 molecules by IC50; largest first, smallest last. Note for the reader: the ranking is given by listing the labels in the order requested.
B, A, C

* * *

Target: UniProtKB O60674
Test: Jak Biochemical HTRF Assay, JAK2
Conditions: HTRF biochemical assay, GST-tagged catalytic domain; top concentration tested […]
outcome.measure: IC50 (µM)

// below: answered compounds
compound	outcome.measure	data.value
Cc1ccccc1-c1cccc(Nc2nn(C3(CC#N)CCN(C(=O)OC(C)(C)C)CC3)cc2C(N)=O)c1 [Example 15-7]	IC50	1.48
N#CCC1(n2cc(C(N)=O)c(Nc3ccc(F)cc3)n2)CCN(c2cncc(C(F)(F)F)c2)CC1 [Example 3-8]	IC50	0.054

I = N#CCC1(n2cc(C(N)=O)c(Nc3ccnc(F)c3)n2)CCN(C(=O)CC(F)(F)F)CC1 [Example 35-2]
II = N#CCC1(n2cc(C(N)=O)c(Nc3ccc(S(=O)(=O)C(F)F)cc3)n2)CCC(NCC(F)(F)F)CC1 (stereo not shown) [Example 40-89]
Larger number for IC50: I , or II ? Your choice should be expressed through its label.
II
(II: 0.466 µM, I: 0.01 µM)

* * *

Molecular target: JAK2 (Homo sapiens (Human))
Assay: Jak Biochemical HTRF Assay, JAK2
Details: HTRF biochemical assay, GST-tagged catalytic domain; top concentration tested […]
Excerpt: Jak Biochemical HTRF Assay Protocol Subsequent reagent additions employed an Agilent Bravo.
outcome.measure: IC50 (µM)

P = COc1ccc(S(=O)(=O)N2CCC(CC#N)(n3cc(C(N)=O)c(Nc4ccccc4)n3)CC2)cc1
Q = N#CCC1(n2cc(C(N)=O)c(Nc3ccc(F)cc3)n2)CCN(CC2CCCCC2)CC1
# returns the entry with the larger IC50; inputs P and Q Use the label to indicate which entry you chose.
Q
(Q: 0.211 µM, P: 0.003 µM)

I = N#CCC1(n2cc(C(N)=O)c(Nc3ccccc3)n2)CCN(S(=O)(=O)C(F)(F)F)CC1
II = N#CCC1(n2cc(C(N)=O)c(Nc3ccc(F)cc3)n2)CCN(Cc2cccc3cc[nH]c23)CC1
III = N#CCC1(n2cc(C(N)=O)c(Nc3ccc(F)cc3)n2)CCN(Cc2cc3ccccc3[nH]2)CC1
Hey, can you sort those compounds up there by IC50, smallest first? Write the labels in rank order as requested.
I, III, II
(I: 0.006 µM, III: 0.064 µM, II: 0.128 µM)

a = N#CCC1(n2cc(C(N)=O)c(Nc3ccnc(F)c3)n2)CCN(Cc2ccccc2)CC1
b = N#CCC1(n2cc(C(N)=O)c(Nc3ccc(F)cc3)n2)CCN(c2cccc(CF)n2)CC1
Could you check which of a and b has a smaller value for IC50? State your choice using its label.
a
(a: 0.006 µM, b: 0.039 µM)

* * *

Molecular target: JAK2 (Homo sapiens (Human), UniProt O60674)
Sequence (O60674 849-1124): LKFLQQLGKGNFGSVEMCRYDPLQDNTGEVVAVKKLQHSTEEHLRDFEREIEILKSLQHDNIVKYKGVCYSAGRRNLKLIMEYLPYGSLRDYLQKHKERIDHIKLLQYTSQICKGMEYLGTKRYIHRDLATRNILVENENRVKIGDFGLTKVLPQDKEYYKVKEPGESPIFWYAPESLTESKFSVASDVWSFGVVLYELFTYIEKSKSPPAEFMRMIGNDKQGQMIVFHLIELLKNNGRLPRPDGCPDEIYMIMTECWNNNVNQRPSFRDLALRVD
Assay: Jak Biochemical HTRF Assay, JAK2
Settings: HTRF biochemical assay, GST-tagged catalytic domain; top concentration tested […]
outcome.measure: IC50 (nM)

compound	measured.target	IC50 / nM
CC(O)(C(=O)N1CCC(CC#N)(n2cc(C(N)=O)c(Nc3ccnc(F)c3)n2)CC1)C(F)F (stereo not shown) [Example 34-61]	JAK2 (Homo sapiens (Human), UniProt O60674)	38
N#CCC1(n2cc(C(N)=O)c(Nc3ccnc(F)c3)n2)CCC(NCc2ccccc2)CC1 (stereo not shown) [Example 41-18]	JAK2 (Homo sapiens (Human), UniProt O60674)	10
N#CCC1(n2cc(C(N)=O)c(Nc3ccnc(F)c3)n2)CCN(CC2CCCCC2)CC1 [Example 22-3]	JAK2 (Homo sapiens (Human), UniProt O60674)	57
CC(C)(C)OC(=O)N1CCC(CC#N)(n2cc(C(N)=O)c(Nc3ccc(C#N)cc3)n2)CC1 [Example 9-5]	JAK2 (Homo sapiens (Human), UniProt O60674)	6
N#CCC1(n2cc(C(N)=O)c(Nc3ccnc(F)c3)n2)CCC(NCc2cccc(F)c2)CC1 (stereo not shown) [Example 41-24]	JAK2 (Homo sapiens (Human), UniProt O60674)	1030

P = N#CCC1(n2cc(C(N)=O)c(Nc3ccc(F)cc3)n2)CCN(c2ccncc2)CC1 [Example 3-46]
Q = Cc1ccc(CN2CCC(CC#N)(n3cc(C(N)=O)c(Nc4ccccc4)n3)CC2)cc1C [Example 21-28]
R = N#CCC1(n2cc(C(N)=O)c(Nc3ccccc3)n2)CCN(C(=O)OC2CCCC2)CC1 [Example 30-30]
Task field, ranking: reported IC50, descending order. Quick reminder: the answer is the labels in the order asked.
Q, P, R
(Q: 453 nM, P: 78 nM, R: 50 nM)

* * *

Biological target: JAK2 (Homo sapiens (Human), UniProt O60674)
Assay: Jak Biochemical HTRF Assay, JAK2
Settings: HTRF biochemical assay, GST-tagged catalytic domain; top concentration tested […]
From the text: Jak Biochemical HTRF Assay Protocol Subsequent reagent additions employed an Agilent Bravo.
outcome.measure: IC50 (nM)

Example entries and their recorded answers appear below.
compound	unit.spec	IC50
C/C=C/C(=O)N1CCC(CC#N)(n2cc(C(N)=O)c(Nc3ccccc3)n2)CC1 [Example 33-2]	nM	64
CN1CCN(CCOC(=O)N2CCC(CC#N)(n3cc(C(N)=O)c(Nc4ccccc4)n3)CC2)CC1 [Example 30-43]	nM	318
N#CCC1(n2cc(C(N)=O)c(Nc3ccc(F)cc3)n2)CCN(C(=O)OC2CCOC2)CC1 (stereo not shown) [Example 30-46]	nM	37

A = N#CCC1(n2cc(C(N)=O)c(Nc3ccc(F)cc3)n2)CCC(N2CCc3ccccc32)CC1 (stereo not shown) [Example 40-49]
B = N#CCC1(n2cc(C(N)=O)c(Nc3ccc(F)cc3)n2)CCN(C(=O)OCC2(O)CC2)CC1 [Example 30-13]
Compare A and B and name the one whose reported IC50 is smaller. Pick one; state its label.
B

a = N#CCC1(n2cc(C(N)=O)c(Nc3ccccc3)n2)CN(C(=O)OC2CCOC2)C1 (stereo not shown) [Example 30-62]
b = N#CCC1(n2cc(C(N)=O)c(Nc3ccnc(F)c3)n2)CCC(Nc2cccc(Cl)c2)CC1 (stereo not shown) [Example 40-29]
c = CC(C)(C)OC(=O)N1CCC(CC#N)(n2cc(C(N)=O)c(Nc3cccc(Cn4nnc5ccccc54)c3)n2)CC1 [Example 2-4]
d = CC(C)Oc1ccc(CN2CCC(CC#N)(n3cc(C(N)=O)c(Nc4ccccc4)n3)CC2)cc1 [Example 21-27]
e = Cc1nc(-c2ccc(Nc3nn(C4(CC#N)CCN(C(=O)OC(C)(C)C)CC4)cc3C(N)=O)cc2)no1 [Example 9-32]
Ascending by IC50, please: list the compounds accordingly. Please reply with the labels ordered as requested. Many thanks.
b, e, c, a, d

1 = N#CCC1(n2cc(C(N)=O)c(Nc3ccc(F)cc3)n2)CCN(C(=O)OC(CF)CF)CC1 [Example 30-9]
2 = N#CCC1(n2cc(C(N)=O)c(Nc3cncc(Cl)c3)n2)CCN(C(=O)OCC(F)(F)F)CC1 [Example 10-9]
Just curious, which one has the larger IC50 reading, 1 or 2 ? Kindly give the label for the entry you pick.
2

a = COCC(=O)N1CCC(CC#N)(n2cc(C(N)=O)c(Nc3ccnc(F)c3)n2)CC1 [Example 34-42]
b = Cn1cc(-c2cccc(Nc3nn(C4(CC#N)CCN(C(=O)OCC(F)(F)F)CC4)cc3C(N)=O)c2)cn1 [Example 10-5]
// select label with min value of measured IC50 from [ a , b ] Reply briefly: the label of your chosen item.
b
(b: 21 nM, a: 96 nM)

a = N#CCC1(n2cc(C(N)=O)c(Nc3ccc(F)cc3)n2)CCC(Nc2ccccn2)CC1 (stereo not shown) [Example 40-12]
b = CCCNC(=O)N1CC(CC#N)(n2cc(C(N)=O)c(Nc3ccccc3)n2)C1 [Example 38-18]
Two entries are listed, a and b . Which one carries the higher IC50? Answer by quoting the chosen item's label.
b
